Biological target: UniProt:Q06187
Assay: Binding kinetics measurements (Surface Plasmon Resonance) on wt-BTK
Settings: target residence time, SPR
readout_name: Tau (h) wt-BTK (Act)

Below are worked cases with known answers.
| compound | system | Tau (h) wt-BTK (Act) |
| --- | --- | --- |
| Nc1ncc2n3c(nc(-c4ccc(C(=O)Nc5cc(C(F)(F)F)ccn5)cc4)c13)[C@@H]1CC[C@H](C1)NC(=O)CCOC/C=C/2 | UniProt:Q06187 | 4.28 |
| Nc1ncc2c3c1c(-c1ccc(C(=O)Nc4cc(C(F)(F)F)ccn4)cc1)nn3[C@@H]1CCC[C@H](C1)NC(=O)CCCC/C=C\C2 [Example 98b] | UniProt:Q06187 | 4.35 |

[a] C[C@@H]1CCn2nc(-c3ccc(C(=O)Nc4cc(C(F)(F)F)ccn4)cc3)c3c(N)ncc(c32)/C=C/CCCC(=O)N1
[b] Nc1ncc2n3c(nc(-c4ccc(C(=O)Nc5cc(C(F)(F)F)ccn5)cc4)c13)[C@@H]1CC[C@H](C1)NC(=O)CCOCC/C=C/2
[c] C[C@H]1CN(C2COC2)CCN1c1ccc(Nc2cc(-c3ccnc(N4CCn5c(cc6c5CC(C)(C)C6)C4=O)c3CO)cn(C)c2=O)nc1 [fenebrutinib, reference compound]
[d] COc1cc(-c2nn3c4c(cnc(N)c24)/C=C/CCOCCC(=O)N[C@@H]2CCC[C@@H]3C2)ccc1C(=O)Nc1cc(C(F)(F)F)ccn1
# ascending order, key=Tau (h) wt-BTK (Act) Dear reader, please state the labels in the requested order.
c, a, b, d
(c: 0.29 h, a: 0.97 h, b: 2.20 h, d: 3.73 h)

###

Molecular target: full-length wt-BTK enzyme (Homo sapiens (Human))
Sequence (Q06187 whole entry): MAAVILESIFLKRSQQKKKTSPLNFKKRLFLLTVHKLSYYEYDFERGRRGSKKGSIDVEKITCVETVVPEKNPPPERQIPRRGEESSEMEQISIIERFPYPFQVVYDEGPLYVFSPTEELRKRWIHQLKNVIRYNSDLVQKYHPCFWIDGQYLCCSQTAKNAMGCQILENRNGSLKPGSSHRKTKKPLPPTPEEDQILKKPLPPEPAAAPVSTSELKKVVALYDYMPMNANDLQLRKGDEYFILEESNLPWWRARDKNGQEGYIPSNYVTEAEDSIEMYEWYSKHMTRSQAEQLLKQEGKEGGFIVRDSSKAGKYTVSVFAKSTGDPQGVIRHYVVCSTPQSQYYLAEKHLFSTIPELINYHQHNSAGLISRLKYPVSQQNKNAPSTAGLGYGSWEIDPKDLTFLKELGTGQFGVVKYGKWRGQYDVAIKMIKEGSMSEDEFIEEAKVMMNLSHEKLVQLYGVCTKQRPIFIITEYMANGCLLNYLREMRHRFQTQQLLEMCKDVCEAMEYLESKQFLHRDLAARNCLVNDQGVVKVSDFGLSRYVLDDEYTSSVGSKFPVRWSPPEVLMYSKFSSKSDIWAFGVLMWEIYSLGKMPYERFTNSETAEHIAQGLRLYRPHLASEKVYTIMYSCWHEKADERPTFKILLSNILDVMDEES
pIC50: −log10 of the molar value.
readout_name: pIC50

Below are worked cases with known answers.
| compound | recorded_measurement |
| --- | --- |
| C[C@@H]1CCn2nc(-c3ccc(C(=O)Nc4cc(C(F)(F)F)ccn4)cc3)c3c(N)ncc(c32)CCCO[C@H](C)C(=O)N1 [Example 113] | 7.30 to 8.30 |
| Nc1ncc2c3c1c(-c1ccc(C(=O)Nc4ccccn4)cc1)nn3[C@@H]1CCC[C@H](C1)NC(=O)CCC/C=C/C2 [Example 99a] | 6.30 to 7.30 |
| Nc1ncc2c3c1c(-c1ccc(C(=O)Nc4cc(C(F)(F)F)ccn4)cc1)nn3[C@@H]1CCC[C@H](C1)NC(=O)CCCNC/C=C/2 [Example 15] | > 8.30 |
| C[C@@H]1CCn2nc(-c3ccc(Oc4ccccc4)cc3)c3c(N)ncc(c32)/C=C/CCCCCC(=O)N1 [Example 173] | > 8.30 |
| Nc1ncc2c3c1c(-c1ccc(C(=O)Nc4cc(C(F)(F)F)ccn4)cc1)nn3[C@@H]1CCC[C@H](C1)C(=O)NCCCCCCCCC2 [Example 120] | 7.30 to 8.30 |

Then this compound:
Quick check: pIC50 on full-length wt-BTK enzyme (Homo sapiens (Human)), item Nc1ncc2c3c1c(-c1ccc(C(=O)Nc4cc(C(F)(F)F)ccn4)cc1)nn3[C@@H]1CCC[C@H](C1)NC(=O)CCCNC/C=C\C2 [Example 108] ?
> 8.30

###

Molecular target: full-length BTK C481S enzyme (Homo sapiens (Human), UniProt Q06187, C481S)
Sequence (Q06187 whole entry C481S): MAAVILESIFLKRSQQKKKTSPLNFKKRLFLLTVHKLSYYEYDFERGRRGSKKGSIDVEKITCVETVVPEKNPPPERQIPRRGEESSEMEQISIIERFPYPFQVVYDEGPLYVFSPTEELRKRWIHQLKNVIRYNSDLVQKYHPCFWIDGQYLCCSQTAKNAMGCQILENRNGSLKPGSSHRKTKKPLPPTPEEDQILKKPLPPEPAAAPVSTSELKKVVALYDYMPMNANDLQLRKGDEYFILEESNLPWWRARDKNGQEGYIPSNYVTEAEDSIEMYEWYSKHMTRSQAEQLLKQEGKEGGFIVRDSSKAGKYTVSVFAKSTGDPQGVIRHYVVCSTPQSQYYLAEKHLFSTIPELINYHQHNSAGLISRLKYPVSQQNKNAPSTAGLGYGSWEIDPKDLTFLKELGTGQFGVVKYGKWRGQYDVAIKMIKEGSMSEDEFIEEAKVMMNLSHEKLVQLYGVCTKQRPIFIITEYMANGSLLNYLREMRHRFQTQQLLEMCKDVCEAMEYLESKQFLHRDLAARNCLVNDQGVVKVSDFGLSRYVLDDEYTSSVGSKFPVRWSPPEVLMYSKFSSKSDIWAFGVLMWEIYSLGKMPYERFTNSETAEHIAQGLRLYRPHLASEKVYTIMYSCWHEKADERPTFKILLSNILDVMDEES
Experiment: Biochemical kinase assay BTK C481S (IMAP)
readout_name: IC50

Below are worked cases with known answers.
| compound | IC50 |
| --- | --- |
| CN1CC/C=C/c2cnc(N)c3c(-c4ccc(C(=O)Nc5cc(C(F)(F)F)ccn5)cc4)nn(c23)[C@@H]2CCC[C@H](C2)NC(=O)C1 | < 5 nM |
| Nc1ncc2c3c1c(-c1ccc(C(=O)Nc4ccccn4)cc1)nn3[C@@H]1CCC[C@H](C1)C(=O)NCC/C=C\C2 | 50 to 500 nM |
| Nc1ncc2c3c1c(-c1ccc(C(=O)Nc4cc(C(F)(F)F)ccn4)cc1)nn3[C@@H]1CCC[C@H](C1)NC(=O)CCC[C@@H](O)/C=C/2 | < 5 nM |
| CN1C/C=C/c2cnc(N)c3c(-c4ccc(C(=O)Nc5cc(C(F)(F)F)ccn5)cc4)nn(c23)[C@@H]2CCC[C@H](C2)NC(=O)CCC1 | < 5 nM |
| Nc1ncc2c3c1c(-c1ccc(C(=O)Nc4cc(C(F)(F)F)ccn4)cc1)nn3[C@@H]1CCC[C@H](C1)NC(=O)CCCCCC2 | < 5 nM |
| Nc1ncc2c3c1c(-c1ccc(C(=O)Nc4ccccn4)cc1)nn3[C@@H]1CCC[C@H](C1)C(=O)NCCCCCCCCC2 | < 5 nM |

Then this compound:
Look up IC50: Nc1ncc2c3c1c(-c1ccc(C(=O)Nc4cc(C(F)(F)F)ccn4)cc1)nn3[C@@H]1CCC[C@H](C1)NC(=O)COCC/C=C/2
< 5 nM

###

Molecular target: BTK T474I (Homo sapiens (Human), UniProt Q06187, T474I)
Sequence (Q06187 whole entry T474I): as the sequence (Q06187 whole entry C481S) above, with T474I, S481C counted along it
Assay: Binding kinetics measurements (Surface Plasmon Resonance) on BTK T474I
Details: target residence time, SPR
readout_name: Tau (h) BTK T474I (Act)

Below are worked cases with known answers.
| compound | system | readout_name | recorded_measurement |
| --- | --- | --- | --- |
| Nc1ncc2n3c(nc(-c4ccc(C(=O)Nc5cc(C(F)(F)F)ccn5)cc4)c13)[C@@H]1CC[C@H](C1)NC(=O)CCCCC/C=C/2 [Example 203] | BTK T474I (Homo sapiens (Human), UniProt Q06187, T474I) | Tau (h) BTK T474I (Act) | 4.17 |
| N#Cc1ccnc(NC(=O)c2ccc(-c3nn4c5c(cnc(N)c35)/C=C/CCCCCC(=O)N[C@@H]3CCC[C@@H]4C3)cc2)c1 [Example 163] | BTK T474I (Homo sapiens (Human), UniProt Q06187, T474I) | Tau (h) BTK T474I (Act) | 4.37 |
| Nc1ncc2c3c1c(-c1ccc(C(=O)Nc4cc(F)ccn4)cc1)nn3[C@@H]1CCC[C@H](C1)NC(=O)CCOC/C=C/2 [Example 189] | BTK T474I (Homo sapiens (Human), UniProt Q06187, T474I) | Tau (h) BTK T474I (Act) | 1.56 |
| Nc1ncc2c3c1c(-c1ccc(C(=O)Nc4ccccn4)cc1)nn3C1CCC[C@H](C1)NC(=O)CCCCC/C=C/2 [Example 24] | BTK T474I (Homo sapiens (Human), UniProt Q06187, T474I) | Tau (h) BTK T474I (Act) | 1.26 |
| N#Cc1ccnc(NC(=O)c2ccc(-c3nn4c5c(cnc(N)c35)/C=C/CCOCCC(=O)N[C@@H]3CC[C@@H]4C3)cc2)c1 [Example 185] | BTK T474I (Homo sapiens (Human), UniProt Q06187, T474I) | Tau (h) BTK T474I (Act) | 1.26 |

[P] Nc1ncc2c3c1c(-c1ccc(C(=O)Nc4cc(C(F)(F)F)ccn4)cc1)nn3[C@@H]1CC[C@H](C1)NC(=O)[C@@H]1CCN1CC/C=C/2 [Example 174]
[Q] Nc1ncc2n3c(nc(-c4ccc(C(=O)Nc5cc(C(F)(F)F)ccn5)cc4)c13)[C@@H]1CC[C@H](C1)NC(=O)CCOCC/C=C/2 [Example 202]
[R] Nc1ncc2c3c1c(-c1ccc(C(=O)Nc4cc(C(F)(F)F)ccn4)cc1)nn3[C@@H]1CCC[C@H](C1)NC(=O)CCCC/C=C\C2 [Example 98b]
# ascending order, key=Tau (h) BTK T474I (Act) Dear reader, please state the labels in the requested order.
P, R, Q
(P: 0.77 h, R: 1.14 h, Q: 2.16 h)

###

Target: BTK T474S (Homo sapiens (Human), UniProt Q06187, T474S)
Sequence (Q06187 whole entry T474S): as the sequence (Q06187 whole entry) above, with T474S counted along it
Assay: Binding kinetics measurements (Surface Plasmon Resonance) on BTK T474S
Settings: SPR binding kinetics, BTK T474S; read-out: Tau (h) BTK T474S (Act); target residence time (converted)
readout_name: residence time (h)

| substance_smiles | readout_name | recorded_measurement |
| --- | --- | --- |
| Nc1ncc2n3c(nc(-c4ccc(C(=O)Nc5cc(C(F)(F)F)ccn5)cc4)c13)[C@@H]1CCC[C@H](C1)NC(=O)CCCC/C=C/2 | residence time | 1.64 |

[1] C[C@@H]1CCn2nc(-c3ccc(C(=O)Nc4cc(C(F)(F)F)ccn4)cc3)c3c(N)ncc(c32)/C=C/CO[C@H](C)C(=O)N1
[2] C[C@@H]1CC(=O)N[C@@H]2CC[C@H](C2)n2nc(-c3ccc(C(=O)Nc4cc(C(F)(F)F)ccn4)cc3)c3c(N)ncc(c32)/C=C/CCN1
[3] Nc1ncc2c3c1c(-c1ccc(C(=O)Nc4cc(C(F)(F)F)ccn4)cc1)nn3[C@@H]1CCC[C@H](C1)C(=O)NCCCCCCC2
[4] N#Cc1ccnc(NC(=O)c2ccc(-c3nn4c5c(cnc(N)c35)/C=C/COCCC(=O)N[C@@H]3CCC[C@@H]4C3)cc2)c1
Rank descending by residence time. Dear reader, please state the labels in the requested order.
4, 3, 1, 2

Data provenance: patent US20250074911A1
